experiment: Cytotoxicity against human HeLa cells assessed as cell viability at 1 uM after 3 days by XTT assay relative to control; type: cell-based; details: read-out: Activity
readout-kind: viability at 72 h, 1 µM (%)

{"molecule": "CN[C@@H]1C[C@H]2O[C@@](C)([C@@H]1OC)n1c3ccccc3c3c4c(c5c6ccccc6n2c5c31)C(=O)NC4 [STAUROSPORINE]", "experimental-value": 33}
{"molecule": "CC(=O)Nc1cncc(-c2cc(-c3cccnc3)cs2)c1", "experimental-value": 98}
{"molecule": "O=C(Nc1cncc(-c2cc(-c3cccnc3)cs2)c1)C1CC1", "experimental-value": 99}

###

molecular target: Dual specificity tyrosine-phosphorylation-regulated kinase 1B (Homo sapiens); details: 0.25 h, read-out: INH
Sequence (Q9Y463 whole entry): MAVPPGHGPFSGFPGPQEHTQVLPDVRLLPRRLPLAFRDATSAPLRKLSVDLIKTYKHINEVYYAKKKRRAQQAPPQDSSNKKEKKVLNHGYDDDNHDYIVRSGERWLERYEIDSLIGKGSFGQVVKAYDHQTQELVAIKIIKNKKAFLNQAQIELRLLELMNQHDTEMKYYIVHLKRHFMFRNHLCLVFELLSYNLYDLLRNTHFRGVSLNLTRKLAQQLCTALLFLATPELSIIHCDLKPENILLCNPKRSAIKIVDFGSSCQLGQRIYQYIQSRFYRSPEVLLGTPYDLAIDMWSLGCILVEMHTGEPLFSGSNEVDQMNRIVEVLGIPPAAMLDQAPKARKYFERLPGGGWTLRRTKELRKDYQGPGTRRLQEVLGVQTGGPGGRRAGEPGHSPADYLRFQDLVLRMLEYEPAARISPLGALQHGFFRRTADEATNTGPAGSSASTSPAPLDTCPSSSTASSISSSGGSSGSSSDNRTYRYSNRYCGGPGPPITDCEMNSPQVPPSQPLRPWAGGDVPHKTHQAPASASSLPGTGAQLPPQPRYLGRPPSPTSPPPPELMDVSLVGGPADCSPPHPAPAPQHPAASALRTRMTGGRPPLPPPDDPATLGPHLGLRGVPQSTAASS
Below, each of the compounds is paired with its reported inhibition at 0.25 µM value.
readout-kind: inhibition at 0.25 µM (%)

{"compound": "CC(=O)Nc1cncc(-c2cc(-c3cccnc3)cs2)c1", "unit-abbreviation": "%", "experimental-value": 40.3}
{"compound": "O=C(Nc1cncc(-c2cc(-c3cccnc3)cs2)c1)C1CCNC1 (stereo not drawn)", "unit-abbreviation": "%", "experimental-value": 62.7}
{"compound": "CCC(=O)Nc1cncc(-c2cc(-c3cccnc3)cs2)c1", "unit-abbreviation": "%", "experimental-value": 49.3}
{"compound": "O=C(Cc1nnn[nH]1)Nc1cncc(-c2cc(-c3cccnc3)cs2)c1", "unit-abbreviation": "%", "experimental-value": 38.5}
{"compound": "O=C(Nc1cncc(-c2cc(-c3cccnc3)cs2)c1)C1CCC1", "unit-abbreviation": "%", "experimental-value": 81}
{"compound": "CCCn1cc(-c2csc(-c3cncc(NC(=O)C4CC4)c3)c2)cn1", "unit-abbreviation": "%", "experimental-value": 65.7}
{"compound": "Cn1cc(-c2csc(-c3cncc(NC(=O)C4CC4)c3)c2)cn1", "unit-abbreviation": "%", "experimental-value": 78.6}
{"compound": "CCn1cc(-c2csc(-c3cncc(NC(=O)C4CC4)c3)c2)cn1", "unit-abbreviation": "%", "experimental-value": 57}

###

molecular target: Dual specificity tyrosine-phosphorylation-regulated kinase 1A (Homo sapiens); assay: Inhibition of recombinant human N-terminal His6-tagged DYRK1A expressed in Escherichia coli BL21(DE3) using KKISGRLSPIMTEQ-NH2 as substrate after 15 mins in presence of 15 uM [gamma32P]ATP by phosphor imaging analysis
pIC50: −log10 of the molar value.

{"chemical-smiles": "O=C(Nc1cncc(-c2cc(-c3cccnc3)cs2)c1)C1CC1", "pIC50": 8.49}

###

target: Dual specificity protein kinase CLK1 (Homo sapiens); assay: Inhibition of recombinant human GST-tagged CLK1 (129 to 484 residues) expressed in Escherichia coli using GRSRSRSRSRSRSRSR as substrate after 15 mins in presence of 15 uM [gamma32P]ATP by phosphor imaging analysis
Sequence (P49759 whole entry, the tested form may be a part): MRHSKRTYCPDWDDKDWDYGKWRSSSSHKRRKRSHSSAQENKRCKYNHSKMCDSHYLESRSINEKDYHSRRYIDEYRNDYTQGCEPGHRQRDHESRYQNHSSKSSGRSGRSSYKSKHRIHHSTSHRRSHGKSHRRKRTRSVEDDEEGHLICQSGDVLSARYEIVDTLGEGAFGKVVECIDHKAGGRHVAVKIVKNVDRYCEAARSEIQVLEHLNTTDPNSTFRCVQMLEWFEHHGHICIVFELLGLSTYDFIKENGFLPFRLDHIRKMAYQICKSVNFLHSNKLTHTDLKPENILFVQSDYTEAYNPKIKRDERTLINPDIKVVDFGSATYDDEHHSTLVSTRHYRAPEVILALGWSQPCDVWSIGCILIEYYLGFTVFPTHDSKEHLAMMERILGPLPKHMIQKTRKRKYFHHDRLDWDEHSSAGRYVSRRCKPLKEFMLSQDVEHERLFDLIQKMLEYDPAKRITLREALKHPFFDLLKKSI
readout-kind: IC50 (nM)

{"chemical-smiles": "O=C(Nc1cncc(-c2cc(-c3cccnc3)cs2)c1)C1CC1", "unit-abbreviation": "nM", "experimental-value": 270}

###

experiment: Cytotoxicity against human HeLa cells assessed as cell viability at 10 uM after 3 days by XTT assay relative to control; assay type: cell-based; settings: read-out: Activity
readout-kind: viability at 72 h, 10 µM (%)

{"chemical-smiles": "O=C(Nc1cncc(-c2cc(-c3cccnc3)cs2)c1)C1CC1", "readout-kind": "viability at 72 h, 10 µM", "experimental-value": 98}
{"chemical-smiles": "CC(=O)Nc1cncc(-c2cc(-c3cccnc3)cs2)c1", "readout-kind": "viability at 72 h, 10 µM", "experimental-value": 83}
